system: HepG2 cells; assay: Mitotoxicity, XTT viability in glucose vs galactose medium; details: Homo sapiens, HepG2, 24 h, read-out: Mitotoxicity IC50, 10 mM galactose
readout.kind: IC50 (µM)
Answers are plain numbers, in µM.

For every item in the list below, what is its measured IC50?
1. CC(C)(C)OC(=O)N[C@H](CCC(=O)N[C@@H]1CC[C@@]2(C)[C@H](CC[C@H]3[C@@H]4CCC[C@@]4(C)CC[C@@H]32)C1)C(=O)O
2. C[C@@]12CCC[C@H]1[C@@H]1CC[C@@H]3C[C@H](NC(=O)CCCC(=O)O)CC[C@]3(C)[C@H]1CC2
3. CC(=O)C1CCC2C3CCC4CC(OC(=O)C(N)CCC(=O)O)CCC4(C)C3CCC12C (centres unmarked) [PAG, pregnanolone glutamate, reference compound]
4. C[C@@]12CCC[C@H]1[C@@H]1CC[C@@H]3C[C@H](NC(=O)CC(=O)O)CC[C@]3(C)[C@H]1CC2
5. C[C@@]12CCC[C@H]1[C@@H]1CC[C@@H]3C[C@H](NC(=O)[C@@H](N)CCC(=O)O)CC[C@]3(C)[C@H]1CC2
6. CS(=O)(=O)Nc1ccc([N+](=O)[O-])cc1Oc1ccccc1 [Nimesulide, nimesulide, reference compound]

193
11
58
174
94
18
